- testDescription: yeast display, Sf9 membrane polyspecificity reagent, FACS + sequencing; frameworks hold sequencing errors
propertyLabel: polyreactivity (PSR sort gate)

Example entries begin here.
QVQLVESGGGLVQAGGSLRLSCAASGRIFSVYAMGWYRQAPGKEREFVAAITKGGVGTYYADSVKGRFTISRDNAKNTVSLQMNCLKPEDTAVYYCAARGTSRQTWLFRYNWNDYWGQGTQVTVSS : high polyreactivity
QVQLVESGGGLVQAGGSLRLSCAASGSIFYGYAMGWYRQAPGKERELVAAISWTGGRTYYADSVKGRFTISRDNAKNTVYLQMNSLKPEDTAVYYCNVRRYSVVSGGYWGQGTQVTVSS : high polyreactivity
QVQLVESGGGLVQAGGSLRLSCAASGLIFARNVMGWYRQAPGKERELVAAISWSSGSTYYADSVKGRFTISRDNAKNTVSLQMNTLKQEDTAVYYCAARKIKSSQYFPTLYYYWGQGTQVTVSS : high polyreactivity
QVQLVESGGGLVQAGGSLRLSCAASGRIFHRNAMGWYRQAPGQERELVARITRSGTSTYYADSVKGRFTISRDNAKNTVYLQMNSLKPEDTAVYYCAADNASPSLGEYNYWGQGTQVTVSS : low polyreactivity
QVQLVESGGGLVQAGGSLRLSCAASGIIFSWYDMGWYRKAPGKERELVAAISSGDRTNYADSVKGRFTISRDNAKNTVYLQMNSLKPEDTAVYYCAADLFPIAGEYDYWGQGTQVTVSS : high polyreactivity

Return reported polyreactivity (PSR sort gate); argument: "QVQLVESGGGLVQAGGSLRLSCAASGRTFTRYAMGWYRQAPGKERELVAAISRSGGSTHYADSVKGRFTISRDNAKNTVYLQMNSLKPEDTAVYFCNTVGYRGRSNSRFYYWGQGTQVTVSS"
high polyreactivity

###

- testDescription: yeast display, Sf9 membrane polyspecificity reagent, FACS + sequencing; frameworks hold sequencing errors
propertyLabel: polyreactivity (PSR sort gate)

QVQLVESGGGLFQAGGSLRLSCAASGFTSLWYGIGWYRPAPGKERELVAAITSDSSTYYADSVKGRFTISRDNAKNTVYLQMYSLKPQDTAVYSCAKYFVYVGYGRYAFWGQGTQVTVSS : low polyreactivity
QVQLVESGGGLVQAGGSLRLSCAASGRTFRAYAMGWYRQAPGKERELVAAISYDGTRTYYADSVKGRFTISRDNAKNTVYLQMNSLKPEDTAVYYCNAVWVRGFYRVYDYWGQGTQVTVSS : high polyreactivity
QVQRVESGGGLVQAGGSLLLSCAASGRTIRHNAMGWYRPAPGKERELVAAISRSGGSTYYADSVKGRFTISRDKAKNTVYLLMNSLKPEDTAVYYCAAGYHGYDWGQGTQVTVSS : high polyreactivity
QVQLVESGGGLVQAGGSLRLSCAASGRIFYYYTMGWYRQAPGKERELVAALTRSGSSTYADSVKGRFTISRDNAKNTVYLQMNSLKAEVTAVYYCAADYIRRYDYWGQGTQVTVSS : low polyreactivity

Let us move to another entry and its polyreactivity (PSR sort gate).
Which polyreactivity (PSR sort gate) is reported for this sequence? "QVQLVESGGGLVQARGSLRLSCAASGSTFYAYVMGWYRQATGKERELVAAISKGGGSTYYADSVKGRFTISRDNAKNTVYLQMNSLKPEDTAVYYSAAYASYSNYRKYNYWGQGTQVTVSS"
high polyreactivity
